System: wheat germ agglutinin (Triticum aestivum), Alexa647-labelled
test protocol: Alexa647-WGA lectin binding to printed small molecules – biochemical, small-molecule microarray, 635/667 nm fluorescence, artefact control for SMM control-protein annotation, profiling panel (AID 1140);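 further: score merges 667 nm feature emission with signal to noise over triplicate slides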
test context: WGA-A647 binding, 635 nm fluorescence, higher = more signal
Rule: composite z-score of 0.5 or more gives Y; anything lower gives N.

-- ask Does CCN(CC)c1ccc(N2CC=CC34O[C@@H]5C=CCCOC(=O)C5[C@H]3C(=O)N(CCCO)[C@@H]4C2=O)cc1 (stereo partly drawn) have a reported composite z-score of at least 0.5?
-- reply N

-- ask Same read-out for "O=C1[C@H]2C=C(Br)[C@H](C[C@@H]2OCCOCCO)[C@@]12CO2" ?
-- reply N

-- ask Another molecule to check: "COCCOC(=O)N1C(=O)[C@@]2(c3cc(C#CCCO)ccc31)[C@H](C(=O)NC[C@H](O)c1ccccc1)[C@H]1C(=O)O[C@H](c3ccccc3)[C@H](c3ccccc3)N1[C@@H]2c1ccc(OCCO)cc1"
-- reply N

-- ask Queued: "O=[N+]([O-])c1ccc(C[n+]2ccc(CCCO)cc2)o1"
-- reply N

-- ask Continue with "COc1ccccc1CN1C(=O)c2ccccc2[C@](Cc2ccccc2I)(C(=O)NCc2ccccc2)[C@@H]1c1ccc(CO)cc1"
-- reply Y

-- ask What about "CN(C)CCCCCCNC(=O)[C@@H]1C[C@@H]2C(=O)NCC(=O)N2[C@@H]1c1cccc(OCCO)c1" ?
-- reply N

-- ask And "COc1ccc([Si](C)(C)[C@H]2[C@H](CC(=O)N3Cc4ccccc4C[C@H]3CO)O[C@@]3(C(=O)N(Cc4cccc(I)c4)c4ccccc43)[C@@H]2C)cc1" ?
-- reply Y

---

assayed target: Calmodulin-1 (Homo sapiens) (UniProt P0DP23)
test protocol: small molecules binding Ca-loaded calmodulin-1 – biochemical, small-molecule microarray, Cy5-labelled CALM1, plus calcium, artefact control for SMM control-protein annotation, profiling panel (AID 1112);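 further: score merges spot fluorescence with signal to noise from triplicate slides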
test context: Cy5-CALM1 binding fluorescence, higher = more signal
Label YES for high-side composite z-score (at or above 0.2) and NO for low-side composite z-score (below it).

-- ask Check the entry "CCCNC(=O)[C@@]1(C)c2ccccc2C(=O)N(Cc2cc(F)cc(C(F)(F)F)c2)[C@H]1c1ccc(CO)cc1" : does composite z-score equal or exceed 0.2?
-- reply YES

-- ask Note, next up: "COC(=O)[C@@]1(Cc2ccc(F)cc2)[C@H]2c3cc(C(=O)N(C)C)n(Cc4ccccn4)c3C[C@H]2CN1C(=O)c1ccccc1"
-- reply YES

-- ask Would you mind doing "C=C(COC)C(=O)CC[C@@H](OC(=O)c1ccccc1-c1ccccc1C(=O)O)c1ccc(CO)o1" as well?
-- reply YES

-- ask Again, but for "Cc1ccc(F)cc1S(=O)(=O)N[C@@H]1CCN(Cc2ccc(C(F)(F)F)cc2)C1"
-- reply NO

-- ask Similarly, "COC(=O)[C@@]1(Cc2ccc(F)cc2)[C@H]2c3cc(C(=O)N(C)C)n(CCCNc4ccc(C(F)(F)F)cc4Cl)c3C[C@H]2CN1C(=O)c1ccccc1" ?
-- reply YES

-- ask // same read-out, input: CC(c1ccccc1)C(O)C1C=CC2C(=O)N(c3ccccc3)C(=O)C2N1Nc1ccccc1F (stereo not given)
-- reply NO

-- ask Would you kindly repeat that for "COCCOC(=O)N1C(=O)[C@@]2(c3cc(C#CCCO)ccc31)[C@H](c1ccc(O)cc1)N1[C@H](c3ccccc3)[C@H](c3ccccc3)OC(=O)[C@H]1[C@@H]2C(=O)N1CCCCCCC1" ?
-- reply YES

-- ask Next compound: "COC(=O)[C@@]1(Cc2ccc(OC)cc2)[C@H]2c3cc(C(=O)N(C)C)n(Cc4ccc(OC)c(OC)c4)c3C[C@H]2CN1C(=O)c1ccccc1"
-- reply YES

-- ask Could you do the same for "CCCNC(=O)[C@@]1(C)c2ccccc2C(=O)N(Cc2cc(C(F)(F)F)cc(C(F)(F)F)c2)[C@H]1c1ccc(CO)cc1" , please?
-- reply NO

-- ask Now give it for "C=CCOC(=O)[C@@H]1[C@H]2C(=O)O[C@H](c3ccccc3)[C@H](c3ccccc3)N2[C@H](c2ccc(OCCOC(=O)[C@H]3C[C@H]4C(=O)N[C@@H](Cc5ccccc5)C(=O)N4[C@H]3c3ccc(O)cc3)cc2)[C@@]12C(=O)Nc1ccc(I)cc12" too.
-- reply NO

-- ask Okay, and "Cc1ccccc1/C=C/C=O" ?
-- reply NO

-- ask Follow-up item: "COCCOC(=O)N1C(=O)[C@@]2(c3ccccc31)[C@H](C(=O)N1CCCCCCC1)[C@H]1C(=O)O[C@H](c3ccccc3)[C@H](c3ccccc3)N1[C@@H]2c1ccccc1OCCO"
-- reply YES

-- ask Let us now turn to "O=C1c2ccccc2[C@](Cc2ccccc2I)(C(=O)O)[C@H](c2ccc(CO)cc2)N1Cc1ccccc1C(F)(F)F"
-- reply NO

-- ask Now consider O=C1C2C=CC(C(O)c3ccccn3)N(Nc3ccccc3F)C2C(=O)N1c1ccccc1 (stereo not given) and answer again.
-- reply NO

-- ask Input "CCOC(=O)C1=CC[C@@H](c2ccccc2)N(S(=O)(=O)c2ccc(C)cc2)[C@H]1c1ccc(C#N)cc1"
-- reply YES
